# Test system: PPARg:RXRa (NR concentration 180 nM, RXRa partner concentration 90 nM)
# Assay comment: PBM binding z-score (relative to random genomic background probes); higher = stronger binding; sequences stand for … in GC…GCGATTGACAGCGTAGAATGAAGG
Please use fulfilled whenever PBM binding z-score is not below 4, and not fulfilled whenever it is.

- ATCTCTAGGGAAAAGTTCAGTGAATCCCGAGGAT: fulfilled
- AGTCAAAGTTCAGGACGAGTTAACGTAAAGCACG: fulfilled
- CCGACTGGGACAGAAAGGTTACCATACCATCCGG: not fulfilled
- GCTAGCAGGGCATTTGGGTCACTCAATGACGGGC: not fulfilled

Prompt line: // inclusive: PBM binding z-score at least 4? input: `ATCTCTAGGTCACAAGTTCAGTGAAAGAGAGGAC`
Response line: fulfilled

----------
# Tested on: FXR:RXRa (NR concentration 270 nM, RXRa partner concentration 90 nM)
# Assay comment: PBM binding z-score (relative to random genomic background probes); higher = stronger binding; sequences stand for … in GC…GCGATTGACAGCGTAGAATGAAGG
Please use t whenever PBM binding z-score is not below 1, and f whenever it is.

The examples below pair each entry with its known result.
- TATATAGGGTCAAAGGCCAGAGTACGAATGTCGA: t
- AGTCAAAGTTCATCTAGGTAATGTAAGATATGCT: t
- ACTACCAGGCCAAGGGTCACTCAAGATTAGTCCG: t
- CGAACTAGGTCATCCAGGACAGCGAATACATTGA: t
- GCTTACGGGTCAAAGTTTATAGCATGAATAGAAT: t

Prompt line: // inclusive: PBM binding z-score at least 1? input: `CGTCCAAGGTGAGAGAGGTCAGTGAATGCCGAGT`
Response line: t

Prompt line: // inclusive: PBM binding z-score at least 1? input: `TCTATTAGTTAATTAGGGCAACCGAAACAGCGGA`
Response line: f

Prompt line: // inclusive: PBM binding z-score at least 1? input: `GCAGACAGGTGAAACACAGGTAACTCAGGGTGGC`
Response line: f

Prompt line: // inclusive: PBM binding z-score at least 1? input: `ATACGTAGGTTAGCTGGGGTCATTCAGACTAGGC`
Response line: t

Prompt line: // inclusive: PBM binding z-score at least 1? input: `ACTAGCAAGCCAAGGGTCACTCAAGATTAGTCCG`
Response line: t

Prompt line: // inclusive: PBM binding z-score at least 1? input: `TTACCAAGGTGAAGGTCGTTGGTCCCTCTGTAGA`
Response line: t

Prompt line: // inclusive: PBM binding z-score at least 1? input: `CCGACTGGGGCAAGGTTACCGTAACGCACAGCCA`
Response line: f

Prompt line: // inclusive: PBM binding z-score at least 1? input: `CGTCAAAATTCAACTAAGGTAACGTAAAGCACGC`
Response line: f

Prompt line: // inclusive: PBM binding z-score at least 1? input: `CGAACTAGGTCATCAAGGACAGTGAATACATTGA`
Response line: t

Prompt line: // inclusive: PBM binding z-score at least 1? input: `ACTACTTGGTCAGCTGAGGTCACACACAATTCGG`
Response line: t

Prompt line: // inclusive: PBM binding z-score at least 1? input: `ATACCAAGGTGATCGTGAGGTCGTTAATACTAAC`
Response line: t

Prompt line: // inclusive: PBM binding z-score at least 1? input: `CGGACTAGGTCATCCAGGACAGTGAATACATTGA`
Response line: t

----------
# Tested on: PPARa:RXRa (NR concentration 270 nM, RXRa partner concentration 90 nM)
# Assay comment: PBM binding z-score (relative to random genomic background probes); higher = stronger binding; sequences stand for … in GC…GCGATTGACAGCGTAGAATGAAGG
Property name: PBM binding z-score
# print the numeric value only

Some sequences with known PBM binding z-score results, for comparison:
• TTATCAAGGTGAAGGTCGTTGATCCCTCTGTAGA = 3.01
• CCTACTGGGCCAAAGGTCATGGATTCCAATGCTC = 6.56
• TCTTGTAGATCAAGCTGGTTAAGAAAGCCTGAGT = 0.383

The measured PBM binding z-score associated with `CCTACAGGGTCAGCTAGGCCAGAGTAGGGACGGC` reads 4.2

The measured PBM binding z-score associated with `ATATTTAGGTTAGCTGGGGTCATTCAGACTAGGC` reads 4.96

The measured PBM binding z-score associated with `CCTAGGAGGACAACAGGAGGTCAGAGCTGCCAGA` reads 2.1

----------
# System: VDR homodimer (NR concentration 270 nM)
# Assay comment: PBM binding z-score (relative to random genomic background probes); higher = stronger binding; sequences stand for … in GC…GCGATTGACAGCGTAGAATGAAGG
Some sequences, each annotated with its measured PBM binding z-score.
# print the numeric value only

The value of PBM binding z-score recorded for `TCTAGTAGGTTACCAATGGGGCATTCAGCTTTCT` when tested on VDR homodimer (NR concentration 270 nM) reads 0.254

The value of PBM binding z-score recorded for `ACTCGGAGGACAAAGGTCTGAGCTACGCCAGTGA` when tested on VDR homodimer (NR concentration 270 nM) reads -0.296

The value of PBM binding z-score recorded for `AGAATGAGGTTATACGTAGATCTGGGAAGAAAGT` when tested on VDR homodimer (NR concentration 270 nM) reads 0.724

The value of PBM binding z-score recorded for `CCGACTGGGGCAAGGTTAACATAACGCACAGCCA` when tested on VDR homodimer (NR concentration 270 nM) reads 0.172

The value of PBM binding z-score recorded for `CGAACTAGGTCATTGACGGGACAGTGAATAGTAA` when tested on VDR homodimer (NR concentration 270 nM) reads 0.927

The value of PBM binding z-score recorded for `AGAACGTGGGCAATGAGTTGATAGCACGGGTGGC` when tested on VDR homodimer (NR concentration 270 nM) reads 0.376

----------
# Tested on: PPARa:RXRa (NR concentration 270 nM, RXRa partner concentration 90 nM)
# Assay comment: PBM binding z-score (relative to random genomic background probes); higher = stronger binding; sequences stand for … in GC…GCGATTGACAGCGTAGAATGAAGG
Property name: PBM binding z-score
# print the numeric value only

* TCAGACAGTTGAAGGTAACTCAGGTACGCAGTCG | 1
* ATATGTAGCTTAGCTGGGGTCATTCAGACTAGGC | 4.15
* TCAAATAGGTAAAAGGTGAAAGTCGGTGTGGTAA | 5.45
* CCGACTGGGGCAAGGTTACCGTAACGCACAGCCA | 1.87
* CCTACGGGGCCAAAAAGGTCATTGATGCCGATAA | 4.67

The measured PBM binding z-score associated with `TAGCCTATGTCATGCGGGCCAGTATAGTGTCGGC` reads -0.683

The measured PBM binding z-score associated with `CGAACGAGGGCATGAGGTGATAGCAAATGCCGAT` reads 2.05

The measured PBM binding z-score associated with `TCTTGTAGATCAATAGAGGTTAAAAAAGTGCGCT` reads 2.06

----------
# Tested on: PPARg:RXRa 30nM:10nM, anti-RXR (NR concentration 30 nM, RXRa partner concentration 10 nM)
# Assay comment: PBM binding z-score (relative to random genomic background probes); higher = stronger binding; sequences stand for … in GC…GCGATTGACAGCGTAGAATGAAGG
Please use true whenever PBM binding z-score is not below 0.002, and false whenever it is.

The examples below pair each entry with its known result.
• CGTCCAAGGTAAGCAGGTCAGTGAAAGCGACGTG = false
• CAGCCTAGGTCAGGGCCAGTATTGGAGGAACGTT = false
• ACAGACAGGTGATGATGGTAACTCAGGCTATCAT = true
• CAAACTGGGTCAAGAGGTCAAAGTCCGCTTCCCG = true
• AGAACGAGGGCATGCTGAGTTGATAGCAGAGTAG = false

Prompt line: // inclusive: PBM binding z-score at least 0.002? input: `TGTCAAAGTTCATAGGTAACGTAAGTATCCACAC`
Response line: true

Prompt line: // inclusive: PBM binding z-score at least 0.002? input: `CCTAATGGGCCATTCAGAGGTCATTGATCATATG`
Response line: true

Prompt line: // inclusive: PBM binding z-score at least 0.002? input: `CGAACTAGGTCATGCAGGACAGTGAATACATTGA`
Response line: true

----------
# Tested on: VDR:RXRa (NR concentration 270 nM, RXRa partner concentration 90 nM)
# Assay comment: PBM binding z-score (relative to random genomic background probes); higher = stronger binding; sequences stand for … in GC…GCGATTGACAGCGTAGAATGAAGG
Classes (PBM binding z-score): I: < 2; II: ≥ 2 and < 3; III: ≥ 3

The examples below pair each entry with its known result.
• TCGAGTAGGTGAGTCGGGGCATTCAGCCAACATA = I
• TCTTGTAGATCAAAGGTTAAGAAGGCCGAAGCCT = II
• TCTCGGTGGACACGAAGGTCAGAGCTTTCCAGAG = I
• CCCAGCAGGCCAGGGTCACTCAAGCATTTCGCTT = II
• CAAACTAGGTCAGGGTCAAAGTCGGTTTGTGCCA = III

Here's the next entry for you.
Prompt line: Determine which band this sequence sits in: `ACTCGGAGGACAAAGGTCAGAGATACGCCAGTGA`
Response line: III
